Reported IC80 (neutralization in TZM.bl cells) values for the following binders.
Target: HIV-1 pseudovirus Ce1176_A3 (HIV-1)
Experiment: cell-based or functional assay
Please state the figure in µg/mL; there is no need to write the unit.

// known answers, use as guide
binder: MS-87 (antibody, V domains shown) VH: QVQLVQSGPEVRKPGTSVKVSCKAPGNTLKTYDLHWVRSVPGQGLQWMGWISHEGDKKVIVERFKAKVTITRDRSTNTAYLQLSGLTSGDTAVYYCAKGSKHRLRDYALYDDDGALNWAVDVDYLSNLEFWGQGTAVTVSS VL: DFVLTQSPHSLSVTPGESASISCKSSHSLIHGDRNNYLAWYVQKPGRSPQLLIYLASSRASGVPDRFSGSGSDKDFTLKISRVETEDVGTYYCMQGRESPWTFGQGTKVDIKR
measured_value: 25

binder: MS-75 (antibody, V domains shown) VH: QVQLVQSGPEVRKPGTSVKVSCKASGNTLKTYDLHWVRSVPGQGLQWMGWISHEGDKKVIVERFKAKVTIDWDRSTNTAYLQLSGLTSGDTAVYYCAKGSKHRLRDYALYDDDGALNWAVDVDYLSNLEFWGQGTAVTVSS VL: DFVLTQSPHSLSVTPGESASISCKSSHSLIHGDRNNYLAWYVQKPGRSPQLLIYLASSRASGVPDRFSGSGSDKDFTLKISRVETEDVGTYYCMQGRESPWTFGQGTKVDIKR
measured_value: 2.79

We next turn to a different binder, shown below.
Param item = MS-92 (antibody, V domains shown) VH: QVQLVQSGPEVRKPGTSVKVSCKAPGNTLKTYDLHWVRSVPGQGLEWMGWISHEGDKKVIVERFKAKVTIDRDRSTNTAYLQLSGLRSGDTAVYYCAKGSKHRLRDYALYDDDGALNWAVDVDYLSNLEFWGQGTAVTVSS VL: DIVLTQSPHSLSVTPGESASISCKSSHSLIHGDRNNYLAWYVQKPGRSPQLLIYLASSRASGVPDRFSGSGSDKDFTLKISRVETEDVGTYYCMQGRESPWTFGQGTKVDIKR ; retrieve measured IC80 (neutralization in TZM.bl cells).
9.78

The origin of these recorded values is patent US20220025021A1.
